biological target: Fuc(a1-2)Gal(b1-4)GlcNAc; test: glycan array binding signal (z-score within array); higher = stronger binding; settings: glycan notation: IUPAC condensed, linker removed
Only a selection was taken, and the strongest signals are over-represented in it overall.
# label = Yes if glycan array binding signal (z-score) >= -0.1 else No

Textbook exercise: given the entry Mg3lysM (Mycosphaerella graminicola) (protein) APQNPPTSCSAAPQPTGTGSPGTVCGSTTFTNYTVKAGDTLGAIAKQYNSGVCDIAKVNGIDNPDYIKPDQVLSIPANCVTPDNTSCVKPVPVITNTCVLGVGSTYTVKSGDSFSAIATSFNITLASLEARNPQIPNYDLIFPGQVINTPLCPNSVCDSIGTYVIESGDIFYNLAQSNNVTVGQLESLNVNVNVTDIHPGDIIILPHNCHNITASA , state whether its glycan array binding signal (z-score) is greater than or equal to -0.1.
Yes

Textbook exercise: given the entry HA-00510 (Pseudomonas aeruginosa), Q02V39_PSEAB (protein) GVPIVNIATPNGAGLSNNHFRDYNVGANGLILNNATGKTQGTQLGGIILGNPNLKGQAAQVILNQVTGGNRSTLAGYTEVAGQSARVIVANPHGITCQGCGFINTPRATLTTGKPIMDGQRLERFQVDGGDIVVEGAELNVGNLEQFDLITRSAKLNAKLYAKNLNIVTGRNDVQADSLQATPRAADGSEKPQLAIDSSALGGMYAGAIRLVGTEQGVGVKLAGDMAASGGDIRIDASGKLSLAQASSQGDLKIAAQAVELNGKTYAGGSAEIRSAEELVNRQS , state whether its glycan array binding signal (z-score) is greater than or equal to -0.1.
Yes

Textbook exercise: given the entry Epa19 (Candida glabrata) (protein) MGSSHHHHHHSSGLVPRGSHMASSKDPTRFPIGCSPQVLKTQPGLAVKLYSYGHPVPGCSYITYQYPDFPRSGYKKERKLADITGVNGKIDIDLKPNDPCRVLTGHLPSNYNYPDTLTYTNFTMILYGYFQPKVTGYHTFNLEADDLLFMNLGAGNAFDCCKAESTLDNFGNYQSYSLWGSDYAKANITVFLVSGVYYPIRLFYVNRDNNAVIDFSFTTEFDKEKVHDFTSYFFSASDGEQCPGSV , state whether its glycan array binding signal (z-score) is greater than or equal to -0.1.
No

Textbook exercise: given the entry CV-2L (Chromobacterium violaceum), Q7NX84 (protein) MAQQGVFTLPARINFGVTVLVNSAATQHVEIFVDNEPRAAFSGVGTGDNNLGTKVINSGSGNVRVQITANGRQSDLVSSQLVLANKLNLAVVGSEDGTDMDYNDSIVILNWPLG , state whether its glycan array binding signal (z-score) is greater than or equal to -0.1.
Yes

Textbook exercise: given the entry SSA (Sclerotinia sclerotiorum), A7XUK7 (protein) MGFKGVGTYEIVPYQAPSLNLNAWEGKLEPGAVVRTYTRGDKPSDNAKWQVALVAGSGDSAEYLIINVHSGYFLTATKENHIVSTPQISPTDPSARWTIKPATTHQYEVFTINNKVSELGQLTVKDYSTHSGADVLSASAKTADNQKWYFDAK , state whether its glycan array binding signal (z-score) is greater than or equal to -0.1.
No
